Consider the following compounds; for each one, report its log10 of TGI.
Test system: HOP-92 NSCLC
protocol: NCI tumour cell line growth inhibition, 48 h
Would you kindly interpret these values as log10 of TGI expressed in µM?

Data request, read-out log10 of TGI, for `COC(=O)c1[nH]nc(-c2ccccc2)c1N1CCCCC1`
1.81

Would you kindly repeat that for `CSC(=S)N(C)NC(=O)c1cccc(C(=O)NN(C)C(=S)SC)n1` ?
1.74

What do we get for C=CCC1NCCC2=C1C(S(=O)(=O)c1ccc(C)cc1)c1ccccc12 (stereo not drawn) ?
1.41

Try this compound too: `C[C@@H]1CN(Cc2ccc(/C=C/c3n[nH]c4ccc5nc(-c6cn[nH]c6C(F)(F)F)c6c(c5c34)CCCC6)cc2)C[C@H](C)O1`
1.25

Queued: `Cc1cc(C)cc(Nc2nccc(-c3c(-c4ccc(F)cc4)ncn3C3CCNCC3)n2)c1`
0.55

---

Tested on: KM12 colon
protocol: NCI tumour cell line growth inhibition, 48 h; in the data active = GI50 below about 0.43 µM; inactive = the rest
A correct response names exactly one class from active, inactive

Which outcome was assigned to `CC(=O)OCCC/C(=C\c1ccc2ccccc2c1)[N+](=O)[O-]` in this test?
inactive

Same lookup for O=C1Nc2ccccc2C12CC(c1ccccc1)=NN2 (stereo not given) , please.
inactive

Okay, and `O=C(Cc1ccc(/C=C/C(=O)c2ncc[nH]2)cc1)Nc1ccc(Br)cc1` ?
inactive

Next molecule: `COC(=O)[C@]12CC[C@@H](C)[C@H](C)[C@@H]1C1=CC[C@@H]3[C@@]4(C)C(c5ncon5)=C[C@@](C)(CO)C4=CC[C@@]3(C)[C@]1(C)CC2`
inactive

Follow-up item: O=C1CC(c2ccccc2)Cc2nc3ccc(Cl)cc3cc21 (stereo not given)
active

---

Provide the recorded TGI for the entries that follow.
Tested on: SN12C renal
protocol: NCI tumour cell line growth inhibition, 48 h

What does the data say about its TGI? Entry: `COc1ccc(N2CCN(CC(=O)N3CCN(c4nnc(-c5ccccc5)c(-c5ccccc5)n4)CC3)CC2)cc1`
> 100 µM

Continue with `C[C@@H]1CN(Cc2ccc(/C=C/c3n[nH]c4ccc5nc(-c6cn[nH]c6C(F)(F)F)c6c(c5c34)CCCC6)cc2)C[C@H](C)O1`
14.9 µM

Param item: `O=C1CCC2=C(CCC2)N1CCc1ccc2c(c1)OCO2`
> 100 µM

Request: `COc1ccc(S(=O)(=O)O)cc1NS(=O)(=O)c1ccc(C)cc1`
> 100 µM

Likewise for `Brc1cccc(C2(CCCC3(c4cccc(Br)n4)OCCO3)OCCO2)n1` ?
> 100 µM

Same question, COC(=O)c1ccc(C)cc1C1CN=NC12Cc1cc(C)c(C)cc1C2=O (stereo not given) this time
> 100 µM

// query: `COc1ccc(C(=O)Nc2ncc(Cc3ccc(F)cc3)s2)cc1`
> 100 µM

Then `COc1cc(C(=O)/C=C/c2c(-c3ccc(F)cc3)nc3sccn23)cc(OC)c1OC` ?
15.8 µM

Now consider `CCN(CC)c1ccc(/C=C/C(=O)c2cccc(NS(C)(=O)=O)c2)cc1` and answer again.
> 100 µM

And for `Cc1ccc(S(=O)(=O)n2cc(-c3cnc(N)c(Br)n3)c3ccccc32)cc1` ?
11.9 µM

---

So I've got a bunch of compounds here, and I need their TGI values.
Tested on: COLO 205 colon
protocol: NCI tumour cell line growth inhibition, 48 h
Your answer is read as µM, so omit the unit and give the number.

I am curious: what TGI value has been reported for `COc1cc(C(=O)/C=C/c2c(-c3ccc(F)cc3)nc3sccn23)cc(OC)c1OC` ?
6.98

// next record `COc1cc(Nc2ncc3c(n2)-c2ccc(Cl)cc2C(c2c(F)cccc2OC)=NC3)ccc1C(=O)O`
16.7

And what about the compound `Cc1cc(-c2ccccc2)c(C)n1Cc1ccc(Cl)cc1` ?
27.8

And the next one, `C[C@@H]1CN(Cc2ccc(/C=C/c3n[nH]c4ccc5nc(-c6cn[nH]c6C(F)(F)F)c6c(c5c34)CCCC6)cc2)C[C@H](C)O1` ?
12

---

System: MDA-N
protocol: NCI tumour cell line growth inhibition, 48 h
I'd appreciate it if you could supply TGI values for the items below.

Name the recorded TGI for `Brc1cccc(C2(CCCC3(c4cccc(Br)n4)OCCO3)OCCO2)n1` .
> 100 µM

Likewise for COc1ccc2[nH]c(C(=O)N3CC(CCl)c4ccc([N+](=O)[O-])cc43)cc2c1 (centres undefined) ?
> 100 µM

Check `O=C(Nc1ccc2ccccc2c1)Nn1cnnc1` too.
> 100 µM

Similarly, CC1CCC2c3c([nH]c4ccccc34)C3C(=O)N(C4CCCCC4)C(=O)C3C2C1 (centres undefined) ?
> 100 µM

Then `Cc1cc(=O)c2c(O)c3c(O)cc(O)c4c5c(O)cc(O)c6c(O)c7c(=O)cc(C)c8c1c2c(c34)c(c65)c78` ?
> 100 µM

What do we get for O=C1C=CC2(O[C@@H](Cc3ccccc3)[C@H](Cc3ccccc3)O2)C(SC(=O)c2ccccc2)C1 (some centres undefined) ?
5.22 µM

Subsequent entry: CCCCCCC(CCl)c1sc(-c2csc(CCNC(=O)OC(C)(C)C)n2)nc1C(=O)OC (centres undefined)
87.9 µM

Can you handle O=C1c2ccccc2C2(c3ccc(Cl)cc3)NCc3ccccc3CN12 (centres undefined) next?
> 100 µM

Now consider `CCOC(=O)N(CC)c1c(C(F)(F)F)cc(-c2ccccc2)[nH]c1=O` .
53.9 µM

What about `Sc1nnc(-c2ccccc2Nc2ccccc2-c2nnc(S)n2-c2ccccc2)n1-c1ccccc1` ?
85.3 µM

Next: `c1ccc([C@H]2CN3CCSC3=N2)cc1`
> 100 µM

One more compound: `COc1cc(N(C)C)ccc1/C=c1/c2ccccc2n2c1cc(-c1ccccc1)[n+]2C`
1.26 µM

Now this one: `Cc1ccnc(NC(=S)Nc2ccccc2Cl)c1`
> 100 µM

Then what about the compound C/C=C/C=C/C1=NN(c2cccc(S(=O)(=O)O)c2)C2(C1)SCC(=O)N2c1nc2ccccc2s1 (centres undefined) ?
> 100 µM

// same read-out, input: CC(=O)NC1C(OCc2ccccc2)OC(CO)C(O)C1OCC(=O)NC(C)C(=O)NC(CCC(=O)NCCCCCC(=O)Nc1ccc2c(c1)CN1C(=O)c3ccccc3C1=N2)C(N)=O (centres undefined)
> 100 µM

Please answer likewise for c1ccc(C(CCN2CCCC2)c2ccccn2)cc1 (centres undefined)
> 100 µM

Try `CC(C)OC(=O)c1ccc(CCC2=CC(=O)C(Br)=CC2=O)cc1` next.
30.9 µM

Can you check CC1OC(OC2C(OC3C[C@@]4(C)C(C[C@H](O)[C@H]5[C@H](C6(C)CCC(C(C)(C)O)O6)CCC54C)[C@]4(C)CC[C@@H](O)C(C)(C)C34)OC(CO)C(O)C2O)C(O)C(O)C1O (some centres undefined) (tested in a mixture with another compound) next?
> 100 µM

Again, but for COC(=O)C1(NC(=O)C(N)CC(=O)O)C(C)C1C (centres undefined)
> 100 µM

---

Tested on: UACC-257 melanoma
protocol: NCI tumour cell line growth inhibition, 48 h
value type: GI50

Could you tell me which GI50 is on file for `Nc1c(C(=O)Nc2cccc3ccccc23)sc2nc3c(cc12)CCCC3` ?
40.5 µM

One more compound: `COc1cc(Nc2ncc3c(n2)-c2ccc(Cl)cc2C(c2c(F)cccc2OC)=NC3)ccc1C(=O)O`
18.2 µM

Another compound to check: `CN(C)CCCNC(=O)c1cc2c3ccccc3[nH]c2c2ncccc12`
15 µM

Again, but for COc1cc2c(cc1OCCCCCCNC(=O)c1cc3ccccc3[nH]1)N=CC1CCCN1C2=O (stereo not given)
14.4 µM

Now try `Cc1cc(=O)c2c(O)c3c(O)cc(O)c4c5c(O)cc(O)c6c(O)c7c(=O)cc(C)c8c1c2c(c34)c(c65)c78` .
> 100 µM

---

Kindly state GI50 for each of the entries shown.
Tested on: SK-OV-3 ovarian
protocol: NCI tumour cell line growth inhibition, 48 h

Fill blank: measured GI50 of the molecule COc1cc2c(cc1OCCCCCCNC(=O)c1cc3ccccc3[nH]1)N=CC1CCCN1C2=O (centres undefined) is ____.
64.8 µM

Try this molecule too: `CCN(CC)c1ccc(/C=C/C(=O)c2cccc(NS(C)(=O)=O)c2)cc1`
5.27 µM

Same question, `COC(=O)Nc1nc2c(OC)c(OC)c(OC)cc2[nH]1` this time
30.8 µM

Field entry: `CC(=O)OCCC/C(=C\c1ccc2ccccc2c1)[N+](=O)[O-]`
5.26 µM

What about this molecule? O=C1Nc2ccccc2C12CC(c1ccccc1)=NN2 (centres undefined)
9.12 µM

Quick one: `Cc1cc2nc3ccc(N=Nc4ccc(N(C)C)cc4)cc3n(-c3ccccc3)c-2cc1=N`
0.0305 µM

Same read-out for O=C1CC(c2ccccc2)Cc2nc3ccc(Cl)cc3cc21 (centres undefined) ?
0.753 µM

Input `NC1=CC(=O)C(=O)c2cccnc21`
18.8 µM

Next entry: COC(=O)C1CC2(c3ccc(C)cc3)C(c3ccc(C)cc3)=C(c3ccc(C)cc3)C1(c1ccc(C)cc1)S2=O (centres undefined)
> 100 µM

Field entry: `COc1cc2c(cc1OCCCCC(=O)Nc1ccc(-c3nc4ccccc4s3)cc1)N=C[C@@H]1CCCN1C2=O`
4.48 µM

Now consider `c1ccc(Cn2cc3c(c2)-c2oncc2CC3)cc1` and answer again.
0.767 µM

# iterate: `c1ccc(-c2n(Cc3ccc4ccccc4n3)c3ccccc3[n+]2Cc2ccc3ccccc3n2)cc1`
0.282 µM

Now give it for `O=C(c1ccc(O)cc1)c1ccc(C(=O)c2ccc(O)cc2)cc1` too.
23.3 µM

Entry `COC(=O)c1[nH]nc(-c2ccccc2)c1N1CCCCC1` please
36.4 µM
